Taken from patent US8440708B2.

Molecular target: human P2X2/3 receptor (Homo sapiens, UniProt P56373+Q9UBL9)
Construct: expressed in transfected cells; host or cells: CHO-K1
Sequence (Q9UBL9 whole entry): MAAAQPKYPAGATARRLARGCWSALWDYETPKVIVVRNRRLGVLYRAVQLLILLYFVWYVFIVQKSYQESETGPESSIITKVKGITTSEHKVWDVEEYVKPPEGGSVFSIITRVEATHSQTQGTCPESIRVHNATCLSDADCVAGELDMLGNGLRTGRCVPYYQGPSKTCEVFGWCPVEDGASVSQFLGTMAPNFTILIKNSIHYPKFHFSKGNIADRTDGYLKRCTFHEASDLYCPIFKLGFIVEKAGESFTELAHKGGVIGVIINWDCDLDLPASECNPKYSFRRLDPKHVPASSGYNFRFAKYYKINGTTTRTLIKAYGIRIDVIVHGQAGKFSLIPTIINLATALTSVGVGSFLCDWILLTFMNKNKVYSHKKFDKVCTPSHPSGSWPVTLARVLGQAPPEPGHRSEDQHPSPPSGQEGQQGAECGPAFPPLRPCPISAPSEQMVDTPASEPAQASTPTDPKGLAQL
Sequence (P56373 whole entry): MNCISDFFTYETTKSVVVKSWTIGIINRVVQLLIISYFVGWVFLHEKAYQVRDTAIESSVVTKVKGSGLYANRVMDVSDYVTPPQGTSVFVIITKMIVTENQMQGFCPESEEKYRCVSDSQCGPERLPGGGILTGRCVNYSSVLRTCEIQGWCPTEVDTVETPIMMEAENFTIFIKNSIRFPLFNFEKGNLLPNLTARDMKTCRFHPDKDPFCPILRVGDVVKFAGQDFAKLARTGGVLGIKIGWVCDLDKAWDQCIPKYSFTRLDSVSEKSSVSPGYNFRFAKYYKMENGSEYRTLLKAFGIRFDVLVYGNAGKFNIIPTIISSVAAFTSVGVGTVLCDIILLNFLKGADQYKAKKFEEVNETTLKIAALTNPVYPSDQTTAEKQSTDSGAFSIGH
Assay: P2X3/P2X2/3 FLIPR (Fluorometric Imaging Plate Reader) Assay, P2X2/3
Type: cell-based
Settings: CHO-K1 cells transfected with human P2X2/3; agonist α,β-meATP 5 μM; Table 1; read-out: P2X2/3 pKi (converted)
Assay metric: Ki (nM)

// solved cases for Ki follow
[
  {
    "Molecule": "Cc1ccc(-c2cc(C(=O)NC(C)c3cnccn3)cc(-n3ncnc3C3CCC3)c2)nc1 (centres unmarked) [Compound 87]",
    "Ki (nM)": 35.5
  },
  {
    "Molecule": "Cc1cnc(CNC(=O)c2cc(-c3ccc(Cl)cn3)cc(-n3ncnc3C(F)F)c2)cn1 [Compound 77]",
    "Ki (nM)": 724
  },
  {
    "Molecule": "COC[C@@H](C)NC(=O)c1cc(-c2ccc(C)cc2)cc(-n2nncc2C)c1 [Compound 6]",
    "Ki (nM)": 2040
  },
  {
    "Molecule": "Cc1ccc(-c2cc(C(=O)NC(C)CO)cc(-n3nc(C)nc3C(C)C)c2)cc1 (centres unmarked) [Compound 28]",
    "Ki (nM)": 10000
  },
  {
    "Molecule": "COC(C)c1ncnn1-c1cc(C(=O)NC(C)c2cnccn2)cc(-c2ccc(C)cc2)c1 (centres unmarked) [Compound 48]",
    "Ki (nM)": 43.7
  },
  {
    "Molecule": "Cc1ccc(-c2cc(C(=O)NCc3cnc(C)cn3)cc(-n3ncnc3C(C)C)c2)c(F)c1 [Compound 135]",
    "Ki (nM)": 25.7
  },
  {
    "Molecule": "COCC(C)NC(=O)c1cc(-c2ccc(C)cc2)cc(-n2ncnc2C(C)C)c1 (centres unmarked) [Compound 14]",
    "Ki (nM)": 1020
  },
  {
    "Molecule": "COC[C@@H](C)NC(=O)c1cc(-c2ccc(C)cc2)cc(-n2c(C)nnc2C(C)C)c1 [Compound 32]",
    "Ki (nM)": 10000
  }
]

[A] Cc1ccc(-c2cc(C(=O)NCc3cnc(C)cn3)cc(-c3ncn(C(C)C)n3)c2)cc1 [Compound 117]
[B] CCc1ncnn1-c1cc(C(=O)N[C@@H](C)CO)cc(-c2ccc(C)cn2)c1 [Compound 127]
[C] Cc1ccc(-c2cc(C(=O)NC(C)c3cnccn3)cc(-n3ncnc3C(F)(F)F)c2)cc1 (centres unmarked) [Compound 66]
In this exercise, place the 3 molecules in ascending sequence of their recorded Ki. Respond with an ordered listing of the labels, as requested.
C, A, B
(C: 40.7 nM, A: 398 nM, B: 6920 nM)

[P] COCCc1nc(C)nn1-c1cc(C(=O)N[C@@H](C)CO)cc(-c2ccc(C)cn2)c1 [Compound 155]
[Q] COc1nnc(C(C)C)n1-c1cc(C(=O)NCc2cnc(C)cn2)cc(-c2ccc(C)cc2)c1 [Compound 138]
[R] Cc1ccc(-c2cc(C(=O)NCc3cnc(C)cn3)cc(-n3ncnc3C(C)C)c2)cc1 [Compound 136]
[S] Cc1ccc(-c2cc(C(=O)NC(C)c3cnccn3)cc(-n3nc(C)nc3C(C)C)c2)cc1 (centres unmarked) [Compound 30]
[T] C[C@@H](CO)NC(=O)c1cc(-c2ccc(Cl)cn2)cc(-n2ncnc2C(C)(F)F)c1 [Compound 73]
Ascending by Ki, please. // list labels; follow requested order
R, S, T, Q, P
